These measurements were taken from patent US20210139581A1.

Items are presented alongside their recorded Fold affinity improvement over parental Ab (AB-H14).
Biological target: T1, human CD33 (human, UniProt P20138 18-259, limits assumed)
T1 construct: Human CD33 immobilized on the BLI sensor tip or the BIAcore C1 chip; also called Siglec-3
T1 sequence (P20138 18-259 limits assumed): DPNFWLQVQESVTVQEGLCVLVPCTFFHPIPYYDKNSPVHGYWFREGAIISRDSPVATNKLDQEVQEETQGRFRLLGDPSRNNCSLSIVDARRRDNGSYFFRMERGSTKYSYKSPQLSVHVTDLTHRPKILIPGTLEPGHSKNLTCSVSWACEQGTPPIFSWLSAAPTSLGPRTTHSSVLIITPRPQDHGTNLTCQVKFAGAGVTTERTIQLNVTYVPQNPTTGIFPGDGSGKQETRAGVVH
Assay: BLI (ForteBio), Fab 100 nM on immobilized CD33
The response must be a number in fold with no trailing unit.

Please review the entries below; each comes with its answer.
* AB-14.3 (antibody, V domains shown) VH: QVQLVQSGAEVKKPGASVKVSCKASGYTFTDYNYHWVRQAPGQGLEWIGFIYPSNGITGSAQKFQGRVTMTVDTSTSTVYMELSSLRSEDTAVYYCARSDVDYFDYWGQGTLVTVSS VL: DIQMTQSPSSLSASVGDRVTITCRASQDVSTSTYSYMHWYQQKPGKAPKLLIKYVSNLESGVPSRFSGSGSGTDFTLTISSLQPEDFATYYCQHSWEIPLTFGQGTKLEIK | 12.3
* AB-14.11 (antibody, V domains shown) VH: QVQLVQSGAEVKKPGASVKVSCKASGYTFTDYNYHWVRQAPGQGLEWIGFIYPSNGITGYAQKFQGRVTMTVDTSTSTVYMELSSLRSEDTAVYYCARSSVDYFDYWGQGTLVTVSS VL: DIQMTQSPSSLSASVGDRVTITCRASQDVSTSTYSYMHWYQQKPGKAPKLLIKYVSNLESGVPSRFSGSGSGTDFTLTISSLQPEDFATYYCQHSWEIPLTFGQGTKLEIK | 14.1

# ---- query binder ----
Name the recorded Fold affinity improvement over parental Ab (AB-H14) for AB-14.2 (antibody, V domains shown) VH: QVQLVQSGAEVKKPGASVKVSCKASGATFTDYNYHWVRQAPGQGLEWIGFIYPSNGITGYAQKFQDRVTMTVDTSTSTVYMELSSLRSEDTAVYYCARSFVDYFDYWGQGTLVTVSS VL: DIQMTQSPSSLSASVGDRVTITCRASQDVSTSTYSYMHWYQQKPGKAPKLLIKYASNLESGVPSRFSGSGSGTDFTLTISSLQPEDFATYYCQHSWEIPLTFGQGTKLEIK .
14.4
